- System: Zymoseptoria tritici (SEPTTR-184)
- MEASUREMENT NOTES: Cyp51 dsRNA tile (fragment) foliar application bioassay (Example 6)
- Format: in vivo
- STATED CONDITIONS: 1 day protectant; rate 3.125 ppm; average of 2 trials
RECORDED METRIC: Disease Control (%) SEPTTR-184 1DP
Provide only the numeric value, understood in %.

Prompt: Entry MgCyp51-T12: dsRNA tile of Zymoseptoria tritici Cyp51, 138 bp, location 1377-1514 (nucleic acid, listed as Zymoseptoria tritici) TGGCTACGGCCTGGTAAGCAAGGGCGCGGCGTCGCCATACTTACCCTTTGGTGCGGGACGACACAGATGTATCGGCGAGCAATTCGCGTACGTGCAATTGCAGACCATTACAGCGACGATGGTTCGCGATTTCAAGTT needs its Disease Control (%) SEPTTR-184 1DP filled in; supply it.
Response: 59
